Measured values drawn from patent US20050239724A1 for this set.

PROTOCOL TEXT: Skin biopsy tissue concentration, four 0.7 mm horizontal sections, acetonitrile extraction (Example 1)
Assay type: in vivo
MEASUREMENT SETUP: human, section 3, topical, 8 % sirolimus in the formulation, subject C, section 3, 7 hours after application, 8% sirolimus in capric acid:benzyl alcohol 50:50, read-out: Sirolimus concentration, skin section 3
MEASUREMENT KIND: concentration at 7 h (ng/g)
Note: unit ng/g is implicit; provide only the numeric part.

Task: Param item = CO[C@H]1C[C@@H]2CC[C@@H](C)[C@@](O)(O2)C(=O)C(=O)N2CCCC[C@H]2C(=O)O[C@H]([C@H](C)C[C@@H]2CC[C@@H](O)[C@H](OC)C2)CC(=O)[C@H](C)/C=C(\C)[C@@H](O)[C@@H](OC)C(=O)[C@H](C)C[C@H](C)/C=C/C=C/C=C/1C ; retrieve measured concentration at 7 h.
Output: 339000
